# Test system: UO-31 renal
# assay_overview: NCI-60 one-dose screen, 48 h (100 = growth as untreated, 0 = no growth, -100 = all killed)
# applied_conditions: 10 µM unless noted
Compounds without any hit were thinned out: in the full panel of roughly 83,000, 20% have a hit.
Recorded measurements of growth, one per entry
The answer is to be given in %; state only the numeric part.

Example entries begin here.
compound	experimental_endpoint	experimental_result
CN1C(=O)N(C)C2Nn3c(s/c(=C\c4ccccn4)c3=O)=NC21 (stereo not given)	growth	88.1
COc1cccc(/C=C/C(=O)c2ccc(NC(=O)COc3cccc4cccnc34)cc2)c1	growth	82.8
O=C(C[n+]1ccnc2ccccc21)c1ccc(O)c(O)c1	growth	40.3
C(=C(\C1=NCCN1)n1cnc2ccccc21)/c1cccc2ccccc12	growth	62.2

Proceeding to the next compound to report its growth.
Incoming: Give growth (UO-31 renal) of the following compound: C=C(C)C(=O)O[C@H]1C[C@@]2(C)OC(=CC2=O)[C@H](C)[C@H](O)[C@H]2OC(=O)C(=C)[C@@H]21
Outgoing: 53.9

----------
# System: SF-539 CNS
# assay_overview: NCI-60 one-dose screen, 48 h
# applied_conditions: 10 µM unless noted
The panel holds about 83,000 compounds, 20% with a hit somewhere; the sample as a whole holds those more often. Activity calls are given as the source filed them. The calls were made as follows: active = growth percent below 10; inactive = the rest.
Please answer using one outcome listed in yes (1) for active, no (0) for inactive

Answered examples (3):
molecule	tgt	class
O=c1c2ccccc2nc(COc2ccccc2)n1/N=C/C=C/c1ccccc1	SF-539 CNS	no (0)
O=C1c2c(c3c4ccc(Br)cc4oc3c3[nH]c4ccccc4c23)C(=O)N1CCO	SF-539 CNS	no (0)
C/C(=N\NC(=O)CSc1nc2sc3c(c2c(=O)n1-c1ccccc1)CCC(C)C3)c1ccc(Cl)cc1 (configuration not stated)	SF-539 CNS	no (0)

Incoming: Can you look up the reported call for O=C(COc1ccc(C2SCC(=O)N2c2ccc(F)cc2)cc1)c1ccccc1 (configuration not stated) for me?
Outgoing: no (0)

----------
# System: SF-295 CNS
# assay_overview: NCI-60 one-dose screen, 48 h
# applied_conditions: 10 µM unless noted
Compounds without any hit were thinned out: in the full panel of roughly 83,000, 20% have a hit. Activity calls are given as the source filed them. Rule for the calls: active = growth percent below 10; inactive = the rest.
API: response.call in TRUE (active), FALSE (inactive)

cpd_smiles	class
C/C(Cc1ccc(Cl)cc1)=C(/c1ccccc1)c1ccc(OCCN)cc1	FALSE
CCNC(=O)Oc1ccc(/C(=C(/C)c2ccc(Cl)cc2)c2ccc(OCCN3CCCC3)cc2)cc1	FALSE

Incoming: Check the results log: what was the call for CCOC(=O)c1c(NCC(=O)Nc2ccc(Br)cc2)sc2c1CCCC2 ?
Outgoing: FALSE

Incoming: For CCCCCCNC(=O)Oc1ccc(/C(=C(/C)c2ccc(Cl)cc2)c2ccc(OCCN3CCCC3)cc2)cc1 then?
Outgoing: TRUE

Incoming: What do you get for O=C1[C@@H]2Cc3c([nH]c4ccccc34)[C@H](c3c(Cl)cccc3Cl)N2C(=O)CN1C1CCN(Cc2c(F)cccc2F)CC1 ?
Outgoing: FALSE

----------
# Tested on: SF-295 CNS
# assay_overview: NCI-60 one-dose screen, 48 h (100 = growth as untreated, 0 = no growth, -100 = all killed)
# applied_conditions: 10 µM unless noted
# Procedure: Cells are grown in 96 well plates and exposed to the test compound for 48 hours. Compounds are tested at a single concentration, which is 10^-5 M for most compounds. The reported endpoint is percent growth (GI% or GIPRCNT), where numbers from 0 - 100% represent growth inhibition, and numbers from -100% - 0 represent cell death. For example, a value of 40 represents 60% growth inhibition. A value of 0 means no net growth occurred over the course of the experiment. […]
This is part of a sample that, as a whole, favours compounds with a hit. Of some 83,000 tested, about 20% had one in any assay.
Overview of reported growth across a group of compounds:
Entry rule: numbers only, all in %.

compound	growth (%)
Cn1cc(-c2nn3cc(-c4cccnc4)nc3s2)c2cc(F)ccc21	92.5

Incoming: Could you tell me which growth is on file for Cc1cc(NS(=O)(=O)c2ccc(-c3cnc(C4CC4)o3)cc2)ccc1I ?
Outgoing: -2.36

Incoming: Follow-up item: CC1COc2c(N3CCN(C)CC3)c(F)cc3c(=O)c(C(=O)N/N=C/c4cc[nH]c4)cn1c23 (centres undefined)
Outgoing: 70.3

Measured values drawn from PubChem BioAssay (NCI) for this set.
